Just for reference, BigSolDB 2.1 is where these values come from.

TEST CONDITIONS: in THF, 293.15 K
REPORTED ENDPOINT: solubility (mole fraction)
# respond with the number and nothing more

Ask: Param item = O=C(O)/C=C/C(=O)O.OCCOCCN1CCN(C2=Nc3ccccc3Sc3ccccc32)CC1.OCCOCCN1CCN(C2=Nc3ccccc3Sc3ccccc32)CC1 ; retrieve measured solubility (mole fraction).
Result: 0.00108

###

TEST CONDITIONS: in ethyl formate, 283.15 K
REPORTED ENDPOINT: solubility (mole fraction)
# respond with the number and nothing more

Ask: Param item = O=C(O)/C=C/C(=O)O.OCCOCCN1CCN(C2=Nc3ccccc3Sc3ccccc32)CC1.OCCOCCN1CCN(C2=Nc3ccccc3Sc3ccccc32)CC1 ; retrieve measured solubility (mole fraction).
Result: 8.6e-05

###

TEST CONDITIONS: in ethyl formate, 313.15 K
REPORTED ENDPOINT: solubility (mole fraction)
# respond with the number and nothing more

Ask: Param item = O=C(O)/C=C/C(=O)O.OCCOCCN1CCN(C2=Nc3ccccc3Sc3ccccc32)CC1.OCCOCCN1CCN(C2=Nc3ccccc3Sc3ccccc32)CC1 ; retrieve measured solubility (mole fraction).
Result: 0.000291

###

TEST CONDITIONS: in toluene, 303.15 K
REPORTED ENDPOINT: solubility (mole fraction)
# respond with the number and nothing more

Ask: Param item = O=C(O)/C=C/C(=O)O.OCCOCCN1CCN(C2=Nc3ccccc3Sc3ccccc32)CC1.OCCOCCN1CCN(C2=Nc3ccccc3Sc3ccccc32)CC1 ; retrieve measured solubility (mole fraction).
Result: 5.82e-05

###

TEST CONDITIONS: in 2-butanone, 288.15 K
REPORTED ENDPOINT: solubility (mole fraction)
# respond with the number and nothing more

Ask: Param item = O=C(O)/C=C/C(=O)O.OCCOCCN1CCN(C2=Nc3ccccc3Sc3ccccc32)CC1.OCCOCCN1CCN(C2=Nc3ccccc3Sc3ccccc32)CC1 ; retrieve measured solubility (mole fraction).
Result: 0.000164

###

TEST CONDITIONS: in THF, 283.15 K
REPORTED ENDPOINT: solubility (mole fraction)
# respond with the number and nothing more

Ask: Param item = O=C(O)/C=C/C(=O)O.OCCOCCN1CCN(C2=Nc3ccccc3Sc3ccccc32)CC1.OCCOCCN1CCN(C2=Nc3ccccc3Sc3ccccc32)CC1 ; retrieve measured solubility (mole fraction).
Result: 0.000705

###

TEST CONDITIONS: in isopropyl acetate, 303.15 K
REPORTED ENDPOINT: solubility (mole fraction)
# respond with the number and nothing more

Ask: Param item = O=C(O)/C=C/C(=O)O.OCCOCCN1CCN(C2=Nc3ccccc3Sc3ccccc32)CC1.OCCOCCN1CCN(C2=Nc3ccccc3Sc3ccccc32)CC1 ; retrieve measured solubility (mole fraction).
Result: 8.3e-05

###

TEST CONDITIONS: in THF, 288.15 K
REPORTED ENDPOINT: solubility (mole fraction)
# respond with the number and nothing more

Ask: Param item = O=C(O)/C=C/C(=O)O.OCCOCCN1CCN(C2=Nc3ccccc3Sc3ccccc32)CC1.OCCOCCN1CCN(C2=Nc3ccccc3Sc3ccccc32)CC1 ; retrieve measured solubility (mole fraction).
Result: 0.000873

###

TEST CONDITIONS: in n-propanol, 283.15 K
REPORTED ENDPOINT: solubility (mole fraction)
# respond with the number and nothing more

Ask: Param item = O=C(O)/C=C/C(=O)O.OCCOCCN1CCN(C2=Nc3ccccc3Sc3ccccc32)CC1.OCCOCCN1CCN(C2=Nc3ccccc3Sc3ccccc32)CC1 ; retrieve measured solubility (mole fraction).
Result: 0.000244
